FYI, the data here is from patent US5116829A.

Assay: Acute toxicity (oral administration)
Design: species or system ICR mice (male)
Conditions: mouse, in vivo, dose 1.7 (mg/kg), 14 days after administration, read-out: Viability (%)
measure.name: survival at 336 h (%)
Give bare numbers, in %.

>>> number("CCCCC(=O)O[C@]1(C(=O)CO)[C@@H](C)C[C@H]2[C@@H]3CCC4=CC(=O)C=C[C@]4(C)[C@@]3(F)[C@@H](O)C[C@@]21C [Betamethasone 17-valerate, betamethasone 17-valerate, reference compound]")
100

Next up:
# input compound: CSCC[C@H](NC=O)C(=O)SCC(=O)[C@@]1(O)[C@@H](C)C[C@H]2[C@@H]3CCC4=CC(=O)C=C[C@]4(C)[C@@]3(F)[C@@H](O)C[C@@]21C [Compound No. 1] ; wanted: its survival at 336 h
100
